These measurements were taken from ChEMBL document CHEMBL3988442.

Please provide measured Percent Effect for the entries that follow.
Tested on: Wolbachia pipientis
Test: Anti-Wolbachia Cell-Based Screen
Assay type: functional
Set-up: scale not given: in the data most compounds retested in dose-response had high values
Details: 5 µM
In all, about 48,000 compounds went through this assay and about 13,000 (27%) showed an effect of 50% or more. Some of the results follow.
Report only the number, with the unit % understood.

Any idea what Percent Effect was measured for COC1CCCN(C(=O)NCC(C)(C)SC)C1 (centres undefined) ?
-6.562

I would be grateful if you could share the reported Percent Effect for O=C1CCN(C(=O)C2(c3ccc(Br)cc3)CC2)CCN1 .
3.303

Which Percent Effect value belongs to CCSCCC(=O)Nc1ncn(Cc2cccnc2)n1 ?
-3.764

Consider the compound O=C1CCN(C(=O)CCc2ccc(Cl)cc2Cl)CCN1 and give its measured Percent Effect.
106.4

Data request, read-out Percent Effect, for O=C(c1cc(Cl)ccc1OC1CCN(C2CCCC2)CC1)N1CCCO1
-1.079

Which Percent Effect is listed for CNC(=O)CS(=O)(=O)C1CCN(S(=O)(=O)c2cccnc2)CC1 ?
10.97

What measured Percent Effect goes with CC(C)(C)c1noc(CCCC(=O)N2CCNC(=O)CC2)n1 ?
-18.62

Entry CC(=O)N1CCCN(C(=O)NCCc2cc(Cl)cc(Cl)c2)CC1 has what Percent Effect?
8.517

Query: Percent Effect; subject: N[C@H]1CN(S(=O)(=O)c2cccnc2)C[C@@H]1C1CC1
-0.9551

Would you kindly share the measured Percent Effect for O=C1CCN(C(=O)NCCc2c[nH]c3ccc(Cl)cc23)CCN1 ?
98.23

Any idea what Percent Effect was measured for Cc1csc(CCNC(=O)c2cc3c(nc2O)CCC(C)C3)n1 (centres undefined) ?
-7.199

I am curious: what Percent Effect value has been reported for Cc1nc(-c2nnc[nH]2)sc1C(=O)N(Cc1cccnc1)C1CC1 ?
1.946

Percent Effect lookup needed for C=C(C)COc1cccc(C(=O)N(C)Cc2cc(CC)no2)c1 , thanks.
-19.24

Quick one: Percent Effect of O=C1CCN(C(=O)NCCCc2ccc(Cl)cc2Cl)CCN1 ?
108.4

Find the recorded Percent Effect belonging to O=C1CCN(C(=O)CCc2cc(Br)cs2)CCN1 and report it.
-5.326

Consider the compound Cc1cc(N(C)C)cc(C2CCN(S(=O)(=O)c3cccnc3)C2)n1 (centres undefined) and give its measured Percent Effect.
129.7

Would you mind telling me what Percent Effect value was observed for CCS(=O)(=O)N(C)C1CCN(c2cccc(F)c2C(C)=O)CC1 ?
1.671

Look at this compound and give its reported Percent Effect. O=C(NCCOc1ccc(Cl)cc1)N1CCS(=O)(=O)CC1
9.107

// Percent Effect lookup, key: O=C(N[C@@H]1CN(c2ncccn2)[C@@H]2CCCO[C@@H]21)c1cnccn1
-12.54

# Percent Effect lookup, item Cc1noc(C)c1-c1n[nH]c2c1CN(S(=O)(=O)c1cccnc1)CC2
2.189

Name the recorded Percent Effect for Cc1cccc(C2CCCN(S(=O)(=O)c3cccnc3)C2)n1 (centres undefined) .
131.9

Percent Effect lookup needed for Cc1csc(CN(C)CCOc2ccccc2)n1 , thanks.
-0.03273

# get_value(readout='Percent Effect', item= Cc1cc(N(C)C)cc(C2CCN(S(=O)(=O)c3cccs3)C2)n1 (centres undefined) )
93.47

Which Percent Effect reading was recorded for the compound CN(Cc1ccc(C(N)=O)cc1)c1ccc(C(F)(F)F)cn1 ?
16.53
